Assay: Substrate specificity of WNanoKAZ mutants, crude enzyme solution (Example 11)
Assay type: biochemical
Settings: Int.
Hi there, I'd appreciate the recorded Relative luminescence activity, Furimazine, Int. for every entry that follows.
One number for each entry.

MOLECULE: KAZ: 19 kDa protein of native Oplophorus luciferase having luminescence activity; SEQ ID NO: 2 (protein, listed as Oplophorus gracilirostris) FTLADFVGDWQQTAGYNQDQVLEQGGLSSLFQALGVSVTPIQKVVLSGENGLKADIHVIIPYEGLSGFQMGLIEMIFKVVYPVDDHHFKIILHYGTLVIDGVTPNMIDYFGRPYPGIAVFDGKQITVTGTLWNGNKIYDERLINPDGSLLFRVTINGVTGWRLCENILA
RECORDED_NUMBER: 0.3

Provide Relative luminescence activity, Furimazine, Int. values for the following items, in order.
1. WNanoKAZ-I138Y: single amino acid-substituted WNanoKAZ mutant I138Y; SEQ ID NO: 14 (protein) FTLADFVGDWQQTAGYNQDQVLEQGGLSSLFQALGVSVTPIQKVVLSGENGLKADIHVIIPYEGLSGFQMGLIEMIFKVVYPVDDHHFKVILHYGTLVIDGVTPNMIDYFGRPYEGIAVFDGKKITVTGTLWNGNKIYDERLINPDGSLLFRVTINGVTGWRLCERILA
2. WNanoKAZ: chimeric protein: positions 1-82 of native KAZ and 83-169 of nanoKAZ; SEQ ID NO: 6; I90V, P115E, Q124K, Y138I, N166R (protein, chimeric protein: positions 1-82 of native KAZ and 83-169 of nanoKAZ; I90V, P115E, Q124K, Y138I, N166R) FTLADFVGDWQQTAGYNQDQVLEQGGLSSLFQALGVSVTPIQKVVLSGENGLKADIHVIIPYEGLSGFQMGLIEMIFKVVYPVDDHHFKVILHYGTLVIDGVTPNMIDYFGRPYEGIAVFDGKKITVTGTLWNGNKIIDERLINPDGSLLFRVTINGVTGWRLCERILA
3. WNanoKAZ-R166N: single amino acid-substituted WNanoKAZ mutant R166N; SEQ ID NO: 16 (protein) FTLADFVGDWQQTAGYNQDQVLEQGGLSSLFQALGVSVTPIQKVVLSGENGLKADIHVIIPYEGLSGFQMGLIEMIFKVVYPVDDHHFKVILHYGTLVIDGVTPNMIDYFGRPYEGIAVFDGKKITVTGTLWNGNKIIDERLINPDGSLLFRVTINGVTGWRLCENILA

Reply:
8.9
29
12
